Each recorded value in this set is attributed to paper doi:10.1101/2020.03.08.982454v1.

Target: KMP-11 (Leishmania donovani)
assay.readout: Kd (nM)
Answers are plain numbers, in nM.

Asked: Could you please provide reported Kd for CCCCCCCCCCCCCCCC(=O)OC[C@H](COP(=O)([O-])OCC[N+](C)(C)C)OC(=O)CCCCCCCCCCCCCCC [DPPC] ? Thanks!
Given back: 286

====

Biological target: KMP-11 (Leishmania donovani, UniProt Q36736, F62W)
Assay: biochemical
assay.readout: Kd (µM)
Numbers only, in µM.

Asked: Please respond with reported Kd (system KMP-11 (Leishmania donovani, UniProt Q36736, F62W)) for CCCCCCCCCCCCCCCC(=O)OC[C@H](COP(=O)([O-])OCC[N+](C)(C)C)OC(=O)CCCCCCCCCCCCCCC .
Given back: 3.8
